System: UO-31 renal
Assay: NCI tumour cell line growth inhibition, 48 h
measuredAttribute: TGI

Recorded TGI for O=C1c2c(ccc3c2CCC3)CC12Cc1cc3c(cc1C2)CCC3 on UO-31 renal was > 100 µM

Reported UO-31 renal TGI for item COc1ccc(-c2nc3ncccn3c2/C=C/C(=O)c2cc(OC)c(OC)c(OC)c2)cc1 was 4.17 µM

UO-31 renal assay, compound COC(=O)C1[C@@H](C(=O)OC)C12C=Cc1ccccc1C=C2 (stereo not given in full) , recorded TGI = > 100 µM

UO-31 renal data for NC(=O)c1ccc2c(-c3ccnc(NCCCO)n3)c(-c3ccc(F)cc3)nn2c1 ; its TGI: > 25 µM

Bench note, UO-31 renal: O=C1c2ccccc2C2(O)NC(=S)N(c3ccccc3)C12O (stereo not given) , TGI reads > 100 µM

====

Test system: HT29 colon
Assay: NCI tumour cell line growth inhibition, 48 h
Peptide text beside a SMILES is read from it. * marks the point of attachment. Boc = CC(C)(C)OC(=O)*; OBn = c1ccc(CO*)cc1
measuredAttribute: TGI

According to the records, this compound CC12CCC(C(=O)N3CC=CCC3)(OC1=O)C2(C)C (stereo not drawn) displays TGI of > 100 µM

get_value(item= COC(=O)c1c2c(c(C)[n+]([O-])c1C)C(=O)C=C(NCc1ccc(OC)cc1)C2=O , readout=TGI) returns > 36.7 µM

CSC1=N/C(=C\c2ccco2)C(=O)N1CN1CCCCC1 yielded TGI of > 100 µM

The reported value for Cc1ccc(Nc2nc(N)nc3c2ncn3C2OC(CO)C(O)C2O)cc1 (stereo not drawn) in terms of TGI is > 100 µM

Given item c1cc(OCCN2CCCCC2)ccc1CNc1ccc2nc(CCC3CCCCC3)[nH]c2c1 , the value recorded as its TGI is 3.7 µM

The measured TGI associated with CCCC(C)C[C@@H](C)CC(C)/C=C(\C)c1oc(=O)c(C)c(O)c1C (stereo partly drawn) (tested in a mixture with another compound) reads 27.6 µM

Input O=c1c2cccnc2cc(-c2ccccc2)n1CCO . Output TGI: > 100 µM

// TGI value for CC1(C)CCCCCCC2OC2CCCCCC(C)(C)C1=O (stereo not drawn) : > 60.5 µM

CC1(C)CCC[C@@]2(C)C1CC[C@H]1CC(O)C3(C)CCC12C3 (stereo partly drawn) yielded TGI of 32.1 µM

compound c1cn2cc(-c3ccc4ncn(C5CCCCC5)c4c3)nc(-c3ccc4c(c3)ncn4C3CCCCC3)c2n1 , TGI observed: 5.2 µM

CC1=NN(c2nc(N)nc(CSCc3nc(N)nc(N(C)C)n3)n2)C(C)(C)C1 yielded TGI of > 100 µM

Given item Cn1c(Nc2ccccc2)c(C=Nc2ccccc2)c(=O)n(C)c1=O , the value recorded as its TGI is > 100 µM

Per the record, COc1c(Cl)c2c(c(OC)c1OC)-c1ccc(SC)c(=O)cc1[C@@H](NC(=O)OCC(F)(F)F)CC2 has TGI of 23.8 µM

// sample COC(=O)C12CC(c3ccccc31)C1C(=O)OC(=O)C12 (stereo not drawn) , its TGI was > 100 µM

GET /value?item= CC(NC(=O)CNC(=O)OC(C)(C)C)C(=O)NC(Cc1ccccc1)C(=O)OCc1ccccc1 (stereo not drawn) (Boc-Gly-Ala-Phe-OBn; configuration not given here) &field=TGI returns > 100 µM

# TGI (compound: O=C1c2ccccc2-c2ccc(N=Nc3c(O)ccc4ccccc34)cc21 ) is > 100 µM

Sample Cn1c(NS(=O)(=O)c2ccccc2)nc2ccccc21 ; TGI observed: > 100 µM

Looking up COc1cc(C2=C(C#N)C(N)OC3=C2COc2ccccc23)cc(OC)c1OC (stereo not drawn) , I see its TGI listed as > 100 µM

Input NC(CCP(=O)(O)CCC1C=CC=CC1)C(=O)O (stereo not drawn) . Output TGI: > 100 µM

Data point: O=P([O-])(O)OP(=O)([O-])O.[NH-][C@@H]1CCCC[C@H]1[NH-].[Pt+4] ; TGI = > 100 µM

The measured TGI associated with N#Cc1sc2c(c1OC(=O)c1cccs1)c(=O)n(-c1ccccc1)c(=S)n2-c1ccccc1 reads > 100 µM

Quick note, TGI for CCOP(=O)(OCC)c1ccc(=O)[nH]c1-c1cccs1 landed at > 100 µM

response.value for O=c1oc2ccccc2c(O)c1C(c1ccc(/C=C/c2ccccc2)cc1)c1c(O)c2ccccc2oc1=O (field: TGI) = 37.2 µM

Query COc1cc(C2c3cc4c(cc3OC(Nc3ccccc3)C2C)OCO4)cc(OC)c1OC (stereo not drawn) yields TGI of > 100 µM

The recorded TGI for entry COC1=C(N2CC2)C(=O)c2nc3n(c2C1=O)CCC3 equals 1.57 µM

Just so you know, measured TGI for O=C(O)c1ccc2c(c1)CC1(C2)Cc2ccccc2C1=O (stereo not drawn) came out at > 100 µM

Measured TGI, CCOC(=O)/C(C#N)=C1\c2c([nH]c(=S)[nH]c2=O)Oc2ccc3ccccc3c21 : > 100 µM

Short answer for O=C(O)c1ccccc1C(=O)Nn1cnnc1 : TGI was > 100 µM

What the record says about COc1ccc2c(CN3CCC[C@H]3C(=O)O)cc3cc4c(cc3c2c1)OCO4 : TGI is 62 µM

Reported TGI ( CCC(=O)NC(Nc1ccc(O)cc1)(C(F)(F)F)C(F)(F)F ) = > 100 µM

Noted for Cc1cc(N2CCN(c3ccnc4cc(Cl)ccc34)CC2)nc(NC2CCCCC2)n1 : its TGI reads 3.9 µM

Note to self: TGI recorded for Cc1cccc(C)c1NC(=O)CCc1nnc2s/c(=C\c3ccc(Cl)cc3)c(=O)n12 was > 100 µM

The recorded TGI for entry c1ccc2c(c1)-c1ccccc1C2N1CC2CCC(CC2)C1 equals 37.6 µM

====

System: KM12 colon
Test: NCI tumour cell line growth inhibition, 48 h
Could you please report measured TGI for the items listed next?

Noted for CC1=NN(C(=O)c2ccccc2O)C(=O)/C1=C/c1ccccc1O : its TGI reads > 100 µM

# TGI (molecule: O=c1ccnc2c1ccc1[nH]cccc12 ) is > 100 µM

Record summary for Cc1cc(C)nc(NS(=O)(=O)c2ccc(Nc3c4ccc(Cl)cc4nc4c(C(=O)Nc5ccc(S(=O)(=O)N=C(N)N)cc5)cccc34)cc2)n1 : reported TGI = > 100 µM

TGI reported for this molecule COC(=O)C(=O)C(C(=O)C(=O)Nc1ccccc1C(C)=O)c1nc2ccc(C(=O)c3ccccc3)cc2[nH]c1=O (configuration not stated) : > 100 µM

Memo: O=c1[nH]ccc2nc(N3CCC(O)CC3)nc(Nc3cccc(C(F)(F)F)c3)c12 , reported TGI: 5.42 µM

TGI recorded for this molecule, O=C(Nc1ccc(F)cc1F)c1cc(Br)ccc1O , is 10.1 µM

Consider C=CCN(CC=C)C(=O)c1cc(C)nc2c1c(=O)n(-c1ccccc1)c(=O)n2CC(O)CN1CCN(c2ncccn2)CC1 (configuration not stated) . Its measured TGI is > 100 µM

The recorded TGI for C#C[C@]1(O)CCC2C3CCc4cc(Oc5nc(F)nc(-c6c7cc8ccccc8cc7c7n6CCS7)n5)ccc4C3CCC21C (some centres not stated) is > 100 µM

Entry under test: Cc1ccc(/C=C/C(=O)c2sc(-c3cccnc3)nc2C)cc1 . Its TGI was > 100 µM

Reported TGI of CNn1c(C)n[nH]c1=O : > 100 µM

The measured TGI associated with CC(=O)Nc1c(C)ccc2c1C(=O)c1ccccc1C2=O reads > 100 µM

The reported TGI of the molecule O=C(Nc1cc[c]([Sb](=[O])([OH])[OH])cc1)c1ccccc1 was > 100 µM

Sure, the documented TGI for COc1ccc(NC(C)=O)cc1C1CCC(=O)N1 (configuration not stated) is > 100 µM

Value of TGI reported for the molecule CC(=O)/C(=C\C1=CCCO1)C(=O)Nc1ccccc1C is > 100 µM

TGI measured on Cc1nc2cc(N)c(F)cc2[nH]1 = > 100 µM

Recorded result, O=[N+]([O-])c1ccc2[nH]ncc2c1Cl , TGI: > 100 µM

CC12CCC(C(=O)N3CC=CCC3)(OC1=O)C2(C)C (configuration not stated) has a reported TGI of > 100 µM

The molecule identified as CC1=NN(c2nc(N)nc(CSCc3nc(N)nc(N(C)C)n3)n2)C(C)(C)C1 registered its TGI at > 100 µM

So, Cc1cc(I)cc(CN(C)CCN2CCCC2)c1O ? Its TGI was 81.3 µM

# molecule COC(=O)C(=O)C(C#N)c1ccc(CC#N)cc1 (configuration not stated) ; its TGI = > 100 µM

According to the records, this molecule Cc1occc1C(=S)Nc1ccc(Cl)c(/C=N/OC(C)C)c1 displays TGI of 53.6 µM

The molecule COc1ccc2c(CN3CCC[C@H]3C(=O)O)cc3cc4c(cc3c2c1)OCO4 showed TGI equal to 41.8 µM
